Details: in isopropanol, 318.2 K
recordedEndpoint: solubility (mole fraction)
Write the value as a bare number.

Lookup: // Input: `C=C(C)[C@@H]1CC[C@]2(C(=O)O)CC[C@]3(C)[C@H](CC[C@@H]4[C@@]5(C)CC[C@H](O)C(C)(C)[C@@H]5CC[C@]43C)[C@@H]12` . Output its solubility (mole fraction) only.
Found: 0.00196

* * *

Conditions: in n-pentanol, 318.2 K
recordedEndpoint: solubility (mole fraction)

Lookup: Return solubility (mole fraction) for the following compound: `C=C(C)[C@@H]1CC[C@]2(C(=O)O)CC[C@]3(C)[C@H](CC[C@@H]4[C@@]5(C)CC[C@H](O)C(C)(C)[C@@H]5CC[C@]43C)[C@@H]12`
Found: 0.00363

* * *

Settings: in sec-butanol, 308.2 K
recordedEndpoint: solubility (mole fraction)

Lookup: Name the recorded solubility (mole fraction) of the compound listed here: `C=C(C)[C@@H]1CC[C@]2(C(=O)O)CC[C@]3(C)[C@H](CC[C@@H]4[C@@]5(C)CC[C@H](O)C(C)(C)[C@@H]5CC[C@]43C)[C@@H]12`
Found: 0.00189

* * *

Settings: in n-hexanol, 278.2 K
recordedEndpoint: solubility (mole fraction)
Kindly provide the number alone.

Lookup: Entry `C=C(C)[C@@H]1CC[C@]2(C(=O)O)CC[C@]3(C)[C@H](CC[C@@H]4[C@@]5(C)CC[C@H](O)C(C)(C)[C@@H]5CC[C@]43C)[C@@H]12` needs its solubility (mole fraction) filled in; supply it.
Found: 0.00226

* * *

Conditions: in sec-butanol, 288.2 K
recordedEndpoint: solubility (mole fraction)
Enter a number only.

Lookup: Consider the compound `C=C(C)[C@@H]1CC[C@]2(C(=O)O)CC[C@]3(C)[C@H](CC[C@@H]4[C@@]5(C)CC[C@H](O)C(C)(C)[C@@H]5CC[C@]43C)[C@@H]12` . State its measured solubility (mole fraction).
Found: 0.00113

* * *

Details: in acetone, 298.2 K
recordedEndpoint: solubility (mole fraction)

Lookup: Please give measured solubility (mole fraction) of the following entry: `C=C(C)[C@@H]1CC[C@]2(C(=O)O)CC[C@]3(C)[C@H](CC[C@@H]4[C@@]5(C)CC[C@H](O)C(C)(C)[C@@H]5CC[C@]43C)[C@@H]12`
Found: 0.000598

* * *

Conditions: in n-pentanol, 308.2 K
recordedEndpoint: solubility (mole fraction)
// return a plain number; no unit text

Lookup: Let me know recorded solubility (mole fraction) for `C=C(C)[C@@H]1CC[C@]2(C(=O)O)CC[C@]3(C)[C@H](CC[C@@H]4[C@@]5(C)CC[C@H](O)C(C)(C)[C@@H]5CC[C@]43C)[C@@H]12` , thanks.
Found: 0.00309

* * *

Conditions: in n-butanol, 288.2 K
recordedEndpoint: solubility (mole fraction)
Field format: numeric only.

Lookup: Name the recorded solubility (mole fraction) of the molecule listed here: `C=C(C)[C@@H]1CC[C@]2(C(=O)O)CC[C@]3(C)[C@H](CC[C@@H]4[C@@]5(C)CC[C@H](O)C(C)(C)[C@@H]5CC[C@]43C)[C@@H]12`
Found: 0.00149

* * *

Conditions: in n-hexanol, 288.2 K
recordedEndpoint: solubility (mole fraction)
Please reply with the value in numeric form only.

Lookup: Give the value of solubility (mole fraction) reported for the following: `C=C(C)[C@@H]1CC[C@]2(C(=O)O)CC[C@]3(C)[C@H](CC[C@@H]4[C@@]5(C)CC[C@H](O)C(C)(C)[C@@H]5CC[C@]43C)[C@@H]12`
Found: 0.00283
